target.entity: Insulin receptor (Homo sapiens)
condition.parameters: at 1 µM
I'd appreciate it if you could supply residual activity values for the items below.
Answer with a number only, understood to be in %.

Sample N#C/C(=C(\N)Sc1ccc(N)cc1)c1ccccc1C(F)(F)F , system: Insulin receptor (Homo sapiens). Its residual activity is 102

Entry CC(C)n1cnc2/c(=N/c3cccc(Cl)c3)nc(NCCO)[nH]c21 , tested on Insulin receptor (Homo sapiens), has a reported residual activity of 68

Note to self: residual activity of Cc1nc2cc3nc(-c4cccs4)cnc3cc2n1C with Insulin receptor (Homo sapiens) was 106

Fill in: Insulin receptor (Homo sapiens) residual activity for CO[C@H]1C[C@@H]2CC[C@@H](C)[C@@](O)(O2)C(=O)C(=O)N2CCCC[C@H]2C(=O)O[C@H]([C@H](C)C[C@@H]2CC[C@@H](O)[C@H](OC)C2)CC(=O)[C@H](C)/C=C(\C)[C@@H](O)[C@@H](OC)C(=O)[C@H](C)C[C@H](C)/C=C/C=C/C=C/1C = 92

Value (residual activity, Insulin receptor (Homo sapiens)) for record NC(=O)c1ccc2[nH]c(-c3ccc(Oc4ccc(Cl)cc4)cc3)nc2c1 = 100

For Cc1cncc2cccc(S(=O)(=O)N3CCCN(C(=O)CN)C[C@H]3C)c12 on Insulin receptor (Homo sapiens), measured residual activity was 97

Result for Cn1cnc2cc3c(Nc4cccc(Br)c4)ncnc3cc21 , tested on Insulin receptor (Homo sapiens), residual activity: 102

Assay Insulin receptor (Homo sapiens), sample O=C(Nc1cccc(Nc2nccc(Nc3cccc(C(F)(F)F)c3)n2)c1)C1CC1 , residual activity read: 86

residual activity value, target or system Insulin receptor (Homo sapiens), for Oc1c2ccccc2c2c3c(cccc13)N=N2 : 70

For the compound Oc1ccc(-c2nc(-c3ccc(F)cc3)c(-c3ccncc3)[nH]2)cc1 , the measured residual activity on Insulin receptor (Homo sapiens) was 97

---

target.entity: Tyrosine-protein kinase ABL1 (Homo sapiens)
condition.parameters: at 1 µM
reported.metric: residual activity (%)
Supply the numeric figure in %, leaving out any unit text.

Input COc1ccc(S(=O)(=O)N(CCO)c2ccccc2CN(C)C/C=C/c2ccc(Cl)cc2)cc1 . Output residual activity: 92

The measured residual activity associated with c1ccc(-c2n[nH]cc2-c2ccnc3ccccc23)nc1 reads 69

Form: molecule = c1ccc2c(-c3ccncc3)c[nH]c2c1 ; residual activity = 98

// O=[N+]([O-])c1ccc(-c2nc(-c3ccc(F)cc3)c(-c3ccncc3)[nH]2)cc1 : residual activity value = 95

residual activity reading for Oc1c2ccccc2c2c3c(cccc13)N=N2 : 83

The reported residual activity of the molecule Nc1ccc2ncnc(NCCc3ccc(Oc4ccccc4)cc3)c2c1 was 100

---

target.entity: Protein kinase C theta type (Homo sapiens)
condition.parameters: at 1 µM
reported.metric: residual activity (%)
Provide only the numeric value, understood in %.

residual activity measured on COc1ccc(C(=O)Nc2sc3c(c2C(N)=O)CCCC3)cc1OC = 89

The recorded residual activity for entry O=C1Nc2ccccc2/C1=C1/Nc2ccccc2/C1=N\OCCC(O)CO (configuration not stated) equals 66

The molecule c1ccc(-c2n[nH]cc2-c2ccnc3ccccc23)nc1 showed residual activity equal to 97

Kindly note the recorded residual activity for O=C1NC(=O)c2c1c1c3ccccc3[nH]c1c1[nH]c3cc(Br)ccc3c21 , which is 80

Memo: CC(C)n1cnc2/c(=N/c3cccc(Cl)c3)nc(NCCO)[nH]c21 , reported residual activity: 69

For this molecule ( Cc1cc2ncc(-c3ccccc3)nc2cc1C ), measured residual activity is 110

residual activity reading for Cc1cccc(-c2[nH]c(C(C)(C)C)nc2-c2ccc3c(c2)OCO3)n1 : 96

What the record says about Oc1c2ccccc2c2c3c(cccc13)N=N2 : residual activity is 90

residual activity reported for this molecule Nc1ccc2ncnc(NCCc3ccc(Oc4ccccc4)cc3)c2c1 : 108

// recorded residual activity for c1ccc2c(-c3ccncc3)c[nH]c2c1 : 88

Sure, the documented residual activity for C[C@@H](N)[C@H]1CC[C@H](C(=O)Nc2ccncc2)CC1 is 63

// sample CC(=O)c1ccc(N2CCOCC2)cc1O , its residual activity was 109
